Reference for the values: the supplement of paper PMC10724198

Test system: Saccharomyces cerevisiae
Experiment: protein stability index of tFT-peptide fusion (C-terminal peptide) (PSI (0-1 scale)); higher = more stable (slower turnover);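 further: PSI is a weighted mean of sequencing reads over stability bins, variants kept only with over 10 reads, mCherry proximal and sfGFP distal, peptide attached via GGGS linker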
Details: genetic background: das1 deletion; temperature: 30 C
Classes are defined on protein stability index with ranges low bracket = under 0.3, middle bracket = from 0.3 up to 0.5, high bracket = 0.5 and over

PPSLFLLLKVFF ... low bracket
HNQDKNVKYKIG ... high bracket
LLVFSLLYPCLV ... low bracket
RLGRYSIIHCLA ... middle bracket

[ask] For IWVWMLSVWLGG , which protein stability index bin applies?
[reply] low bracket

====

Tested on: Saccharomyces cerevisiae
Experiment: protein stability index of tFT-peptide fusion (C-terminal peptide) (PSI (0-1 scale)); higher = more stable (slower turnover)
Conditions: genetic background: wild type; temperature: 30 C
Let's look at some sequences and their measured protein stability index.
Give the figure by itself; no unit, no explanation.

NSSKHAWAWPVP ... 0.68
ILSASSLFPFVS ... 0.693
IREFNLGTQIRY ... 0.711
LASEPLPPYPPS ... 0.704
SYLPLGTVLMLG ... 0.681

Note to self: protein stability index recorded for LPSPLPPPPPAH was 0.707

Note to self: protein stability index recorded for NQERYKKIRSKQ was 0.714
